test system: A549; assay: NCI tumour cell line growth inhibition, 48 h
The source made the active and inactive calls. Cut-off read from the data, not from the text of the source: active = GI50 up to about 1.1 µM and inactive = higher.
What GI50 was measured for each of the following?

Use the examples below as a reference point.
Problem: // Input: `O=C(/C=C1\Nc2ccccc2N\C1=C\C(=O)c1ccc(Cl)cc1)c1ccccc1` . Output its GI50 only.
Solution: 53 µM (inactive)

Problem: Identify measured GI50 corresponding to `CNC(=O)OCc1nc(N=[N+]=[N-])n(C)c1COC(=O)NC`
Solution: 61.7 µM (inactive)

Problem: Given `O=CN1CCN(C(=O)c2ccc(Cl)cc2Cl)C1=S` , respond with its GI50.
Solution: 67.3 µM (inactive)

Lab note: each molecule below needs its GI50 filled in.
1. O=C(N/N=C/C=C/c1ccccc1)[C@H](O)[C@@H](O)C(=O)N/N=C/C=C/c1ccccc1
2. NC(=O)Cc1nc2c(O)ncnc2n1C1OC(CO)C(O)C1O (configuration not stated)

Solution:
1: > 100 µM (inactive); 2: > 100 µM (inactive)

// for each molecule in input: emit GI50
1. CCn1c(=O)nc2n(-c3ccccc3)c3ccccc3nc-2c1=O
2. COc1cc(C(=O)O)c([N+](=O)[O-])c(OC)c1OC
3. COC(=O)C1C2CC3C1C3C2C(=O)OC (configuration not stated)
4. COC(=O)C1Cc2ccc3c(c2C1=O)CCCC3 (configuration not stated)
5. COC(=O)c1cc(C)ccc1C1CN=NC12Cc1c(C)cc(C)cc1C2=O (configuration not stated)
6. O=C(O)C12C=CC(C1)c1ccccc12 (configuration not stated)

Solution:
17.2 µM (inactive)
> 100 µM (inactive)
> 100 µM (inactive)
> 100 µM (inactive)
26.7 µM (inactive)
> 100 µM (inactive)

Problem: Respond only with GI50 recorded for `COc1ccc(OC)c2c(=O)cc(-c3ccccc3)[nH]c12`
Solution: > 100 µM (inactive)
